MEASURED TARGET: T1, His-human LIGHT (human)
T1 chain: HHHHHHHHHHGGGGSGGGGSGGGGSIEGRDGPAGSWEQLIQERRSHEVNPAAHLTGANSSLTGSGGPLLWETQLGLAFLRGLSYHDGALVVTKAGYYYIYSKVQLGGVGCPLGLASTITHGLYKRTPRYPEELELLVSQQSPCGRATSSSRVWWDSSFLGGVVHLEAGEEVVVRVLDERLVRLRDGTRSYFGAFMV
ASSAY METHOD TEXT: cell-based or functional assay
PROPERTY: IC50, LTβR NF-κB luciferase reporter, free LIGHT (nM)

BINDER | DISPLAY UNIT | VALUE REPORTED
hum_LT-m85-3 (antibody, human IgG4, V domains shown, humanized from LT-m85) VH: QVQLVQSGAEVKKPGASVKVSCKASGYTFTSYNVHWVRQAPGQGLEWIGAVYPGNGDTSYNQKFKGRATLTADKSTSTVYMELSSLRSEDTAVYYCARGSYYYTSSYFDHWGQGTLVTVSS VL: EIVMTQSPATLSVSPGERATLSCKASQSVDFDGDSYMNWYQQKPGQPPRLLIYTASNLESGIPARFSGSGSGTEFTLTISSLQSEDFAVYYCQQSYEDPFTFGQGTKLEIK | nM | 0.159

Source of measurements: patent EP4596580A1
